Reference for the values: patent US12435061B2

# TEST TARGET: hTRPV3 (Homo sapiens (Human))
# Sequence (Q8NET8 whole entry): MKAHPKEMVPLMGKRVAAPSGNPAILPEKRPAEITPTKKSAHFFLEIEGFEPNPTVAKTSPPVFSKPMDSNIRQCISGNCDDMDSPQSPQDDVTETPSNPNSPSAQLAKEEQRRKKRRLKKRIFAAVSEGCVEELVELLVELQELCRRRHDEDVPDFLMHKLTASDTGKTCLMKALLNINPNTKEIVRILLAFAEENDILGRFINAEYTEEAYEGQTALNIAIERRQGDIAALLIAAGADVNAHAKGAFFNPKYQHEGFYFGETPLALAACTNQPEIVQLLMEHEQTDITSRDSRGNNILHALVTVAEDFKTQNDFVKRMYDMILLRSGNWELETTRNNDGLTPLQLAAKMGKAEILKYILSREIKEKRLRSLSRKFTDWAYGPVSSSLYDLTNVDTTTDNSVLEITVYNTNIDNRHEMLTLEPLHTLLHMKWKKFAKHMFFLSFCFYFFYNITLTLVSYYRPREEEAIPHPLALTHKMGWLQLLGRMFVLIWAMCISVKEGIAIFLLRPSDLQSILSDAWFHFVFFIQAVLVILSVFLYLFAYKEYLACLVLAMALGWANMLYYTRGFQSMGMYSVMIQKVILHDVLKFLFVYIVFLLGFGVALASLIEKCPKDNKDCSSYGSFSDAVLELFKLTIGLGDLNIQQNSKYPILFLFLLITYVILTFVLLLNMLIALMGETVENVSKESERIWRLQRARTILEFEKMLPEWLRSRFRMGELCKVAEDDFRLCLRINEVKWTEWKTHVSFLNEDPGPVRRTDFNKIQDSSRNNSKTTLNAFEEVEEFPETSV
# PROTOCOL DETAILS: Whole-cell patch clamp, hTRPV3 Phase 1 / Phase 2 currents
# Assay type: cell-based
# SETUP CONDITIONS: Phase 1 current, inward, whole-cell patch clamp; read-out: hTRPV3 Patch P1 Inwd
pIC50: −log10 of the molar value.
Readings of pIC50 for the listed compounds

Below, 5 compounds whose answers are already recorded.
# COMPOUND, TEST TARGET, pIC50
measured = [
    ("CC(C)c1ccccc1-c1ccc(C2CCN(Cc3ccc(F)cn3)C2)c(CO)c1 (centres unmarked) [Compound 2-95]", "hTRPV3 (Homo sapiens (Human))", "6.00 to 7.00"),
    ("COc1ccccc1N1CCC(Nc2ncc(C(F)(F)F)cc2Cl)C1 (centres unmarked) [Compound 1-370]", "hTRPV3 (Homo sapiens (Human))", "< 6.00"),
    ("Cc1ccccc1-c1ccc(N2CC[C@H](Oc3ncccc3F)C2)c(CO)n1 [Compound 1-216]", "hTRPV3 (Homo sapiens (Human))", "< 6.00"),
    ("Cc1ccc(O[C@H]2CCN(c3ccc(-c4ccccc4)cc3CO)C2)nc1 [Compound 1-141]", "hTRPV3 (Homo sapiens (Human))", "6.00 to 7.00"),
    ("CC(C)c1ccccc1Oc1ccc(C2CCN(C(=O)c3ncccc3F)C2)c(C(N)=O)c1 (centres unmarked) [Compound 2-46]", "hTRPV3 (Homo sapiens (Human))", "< 6.00"),
]

Prompt: What does the record list as pIC50 for OCc1ccc(-c2ccccc2Cl)cc1N1CC[C@H](Oc2ccc(C(F)(F)F)cn2)C1 [Compound 1-225] ?
Response: 6.00 to 7.00

Prompt: Follow-up entry: COCc1ccccc1-c1ccc(N2CC[C@H](Oc3ccc(C(F)(F)F)cn3)C2)c(CO)c1 [Compound 1-160]
Response: 7.00 to 8.00

Prompt: Follow-up entry: Cc1ccccc1-c1ccc(N2CC[C@H](Oc3ccc(C(F)(F)F)cn3)C2)c(CCCO)c1 [Compound 1-176]
Response: < 6.00
